Source of measurements: the Deep4Chem optical property database

# method description: solvent given as SMILES
# measurement conditions: in C1CCOC1
experimental endpoint: absorption maximum (nm)

mol smiles: COc1cc2c(cc1-c1ccc([N+](=O)[O-])cc1)Cc1c3c(c4c(c1-2)-c1cc(OC)c(-c2ccc([N+](=O)[O-])cc2)cc1C4)C(=O)N(CCC(C)C)C3=O
numeric result: 409
//
mol smiles: CC1(C)CC(/C=C/c2ccc(-n3ccnc3)cc2)=CC(=C(C#N)C#N)C1
numeric result: 398
//
mol smiles: CCCCCCCCCCOC(=O)c1ccc2c3ccc(C(=O)OCCCCCCCCCC)c4c(C(=O)OCCCCCCCCCC)cc5[nH]c6cc(C(=O)OCCCCCCCCCC)c1c2c6c5c43
numeric result: 410
